Experiment: in vivo
Conditions: Sprague Dawley, rat, serum, oral, 9 mg/kg
attribute_measured: AUC(0-t) (ng·h/mL)
Answer in ng·h/mL, number only, no unit symbol.

## Input Please report the recorded AUC(0-t) for CC(=O)O[C@H]1C(=O)[C@@]2(C)[C@H]([C@H](OC(=O)c3ccccc3)[C@]3(O)C[C@H](OC(=O)[C@H](O)[C@@H](NC(=O)c4ccccc4)c4ccccc4)C(C)=C1C3(C)C)[C@]1(OC(C)=O)CO[C@@H]1C[C@@H]2O [Paclitaxel, paclitaxel] .
## Output 80

---

Conditions: male, Sprague-Dawley, rat, in vivo
Each record here notes measured t½.
Write it as a number; the unit h goes unstated.

# annotated cases, reported t½ shown
1) CC(=O)O[C@]1(C(C)=O)CC[C@H]2[C@@H]3C=C(C)C4=CC(=O)CC[C@]4(C)[C@H]3CC[C@@]21C [Magace, megestrol acetate] | 23.1
2) CC(=O)N1CCN(c2ccc(OCC3COC(Cn4ccnc4)(c4ccc(Cl)cc4Cl)O3)cc2)CC1 (stereo not shown) [Ketoconazole, ketoconazole] | 9.23
3) OCCN(CCO)c1nc(N2CCCCC2)c2nc(N(CCO)CCO)nc(N3CCCCC3)c2n1 [Dipyridamole, dipyridamole] | 26.6

Now, please, on to the next molecule.
## Input Item CC(=O)[C@H]1CC[C@H]2[C@@H]3CCC4=CC(=O)CC[C@]4(C)[C@H]3CC[C@]12C [Progesterone, progesterone] has what recorded t½?
## Output 20.0

Reference for the values: patent US20050238634A1
